# measured_target: mouse DLL3 on CHO-K1-mDLL3 cells (mouse) (UniProt O88516)
# Sequence (O88516 other isoform, or with tags, fused parts or gaps limits assumed): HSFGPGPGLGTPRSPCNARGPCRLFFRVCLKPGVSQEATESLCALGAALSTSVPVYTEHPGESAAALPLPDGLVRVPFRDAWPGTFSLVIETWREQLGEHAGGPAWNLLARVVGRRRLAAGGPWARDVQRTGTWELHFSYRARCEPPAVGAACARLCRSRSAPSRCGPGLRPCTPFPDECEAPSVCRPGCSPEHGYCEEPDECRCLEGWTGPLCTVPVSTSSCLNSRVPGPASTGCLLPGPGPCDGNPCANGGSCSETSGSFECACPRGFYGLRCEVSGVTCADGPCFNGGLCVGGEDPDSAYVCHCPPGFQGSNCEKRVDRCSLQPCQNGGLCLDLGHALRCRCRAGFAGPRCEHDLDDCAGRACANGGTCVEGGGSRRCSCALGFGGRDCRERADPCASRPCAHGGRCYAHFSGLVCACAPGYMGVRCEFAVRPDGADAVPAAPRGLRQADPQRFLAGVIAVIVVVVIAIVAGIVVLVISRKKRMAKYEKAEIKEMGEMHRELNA
# assay_procedure: FACS, CHO-K1-mDLL3 cells, 100 nM antibody

| binder | MFI / MFI |
| --- | --- |
| Hab009VL3aVH1-hFc (scFv, part only; not given: VL-VH linker and human IgG1 Fc, V domains shown, not shown: another chain or arm of the molecule; a dimerising Fc or GST; small tags and cut ends) VL: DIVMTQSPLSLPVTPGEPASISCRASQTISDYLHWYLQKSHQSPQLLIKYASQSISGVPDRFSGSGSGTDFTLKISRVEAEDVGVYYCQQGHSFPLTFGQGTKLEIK VH: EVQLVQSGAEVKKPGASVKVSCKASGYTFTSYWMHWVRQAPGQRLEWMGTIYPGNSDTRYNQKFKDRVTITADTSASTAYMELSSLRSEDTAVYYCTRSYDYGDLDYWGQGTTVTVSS | 553 |
| Hab014VL1VH2-hFc (scFv, part only; not given: VL-VH linker and human IgG1 Fc, V domains shown, not shown: another chain or arm of the molecule; a dimerising Fc or GST; small tags and cut ends) VL: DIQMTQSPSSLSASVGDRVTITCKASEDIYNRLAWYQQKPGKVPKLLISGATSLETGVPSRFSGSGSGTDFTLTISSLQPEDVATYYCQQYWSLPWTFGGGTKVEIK VH: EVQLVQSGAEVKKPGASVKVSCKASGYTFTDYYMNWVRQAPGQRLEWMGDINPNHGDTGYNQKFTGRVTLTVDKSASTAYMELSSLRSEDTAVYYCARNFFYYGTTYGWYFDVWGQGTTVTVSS | 389 |
| Hab006VL1VH4-hFc (scFv, part only; not given: VL-VH linker and human IgG1 Fc, V domains shown, not shown: another chain or arm of the molecule; a dimerising Fc or GST; small tags and cut ends) VL: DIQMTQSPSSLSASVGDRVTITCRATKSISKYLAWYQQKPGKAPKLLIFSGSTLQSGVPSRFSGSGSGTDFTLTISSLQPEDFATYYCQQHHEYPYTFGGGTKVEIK VH: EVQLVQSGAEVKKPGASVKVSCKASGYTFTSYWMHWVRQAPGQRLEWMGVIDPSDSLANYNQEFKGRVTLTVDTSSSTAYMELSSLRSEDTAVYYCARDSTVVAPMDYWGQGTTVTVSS | 589 |
| Hab014VL3VH1-hFc (scFv, part only; not given: VL-VH linker and human IgG1 Fc, V domains shown, not shown: another chain or arm of the molecule; a dimerising Fc or GST; small tags and cut ends) VL: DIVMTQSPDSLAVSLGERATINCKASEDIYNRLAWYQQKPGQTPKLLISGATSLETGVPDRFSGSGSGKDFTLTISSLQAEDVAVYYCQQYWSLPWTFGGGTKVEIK VH: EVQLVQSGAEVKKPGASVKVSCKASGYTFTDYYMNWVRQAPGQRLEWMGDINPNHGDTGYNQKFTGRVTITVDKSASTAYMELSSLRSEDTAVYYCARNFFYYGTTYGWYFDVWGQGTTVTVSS | 382 |
| Hab015VL4VH5a-hFc (scFv, part only; not given: VL-VH linker and human IgG1 Fc, V domains shown, not shown: another chain or arm of the molecule; a dimerising Fc or GST; small tags and cut ends) VL: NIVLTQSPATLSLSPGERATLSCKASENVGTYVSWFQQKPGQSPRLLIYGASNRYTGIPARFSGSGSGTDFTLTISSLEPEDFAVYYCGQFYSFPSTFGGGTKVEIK VH: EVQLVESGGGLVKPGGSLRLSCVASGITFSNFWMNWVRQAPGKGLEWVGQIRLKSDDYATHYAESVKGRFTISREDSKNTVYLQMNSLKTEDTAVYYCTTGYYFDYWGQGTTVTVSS | 1530 |
